Tested on: HeLa cancer cells
Experiment: MTT cytotoxicity assay in HeLa cancer cells
Type: cell-based
endpoint: IC50 (µM)
Value expressed in µM; do not type the unit.

Record COc1cc2c(cc1OC)[C@@H](Cc1ccc(Oc3cc(C[C@H]4NCCc5cc(OC)c(OC)cc54)ccc3O)cc1)N(C)CC2 [N-desmethyldauricine, reference compound] . Reported IC50: 15.8
